tested on: 817829-284-R-J1-PDC complex spheroid viability; assay: Anticancer human tumor 817829-284-R-J1-PDC patient-derived colon adenocarcinoma cell line growth inhibition [POLQ]; conditions: second compound 0.0316 µM; first compound 0.1 µM; stronger effect = lower value;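 note: spheroids exposed to compounds for 7 days; 100% = DMSO vehicle-treated spheroids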
hey, just use 1.0 if measured viability, T/C is less than 70%, otherwise 0.0

compound: O=C(c1cc(Cc2n[nH]c(=O)c3ccccc23)ccc1F)N1CCN(C(=O)C2CC2)CC1 + COC1C(OC(N)=O)C(O)C(Oc2ccc3c(O)c(NC(=O)c4ccc(O)c(CC=C(C)C)c4)c(=O)oc3c2C)OC1(C)C
classAssignment: 0.0

compound: CNCc1ccc(-c2[nH]c3cc(F)cc4c3c2CCNC4=O)cc1 + Nc1ccc(C#CCN(C(=O)Cc2ncc(C(F)(F)F)cc2C(F)(F)F)c2ccc(F)cc2)nn1
classAssignment: 0.0

compound: CCc1cc2c(N3CCc4c(cc(Cn5ccnc5)cc4-c4cn(C)nc4C(F)(F)F)C3=O)cc(C)nc2c(OC)n1 + Cc1cccc(N(C)C(=O)C2C(O)CCN2c2nc(C)cc(C(F)(F)F)c2C#N)c1
classAssignment: 1.0

compound: C#Cc1c(F)ccc2cc(O)cc(-c3ncc4c(N5CC6CCC(C5)N6)nc(OCC56CCCN5CC(F)C6)nc4c3F)c12 (stereo unspecified) + Cc1cccc(N(C)C(=O)C2C(O)CCN2c2nc(C)cc(C(F)(F)F)c2C#N)c1
classAssignment: 0.0

compound: C#Cc1c(F)ccc2cc(O)cc(-c3ncc4c(N5CC6CCC(C5)N6)nc(OCC56CCCN5CC(F)C6)nc4c3F)c12 (stereo unspecified) + COC1C(OC(N)=O)C(O)C(Oc2ccc3c(O)c(NC(=O)c4ccc(O)c(CC=C(C)C)c4)c(=O)oc3c2C)OC1(C)C
classAssignment: 0.0

compound: COc1cccc2c1C(=O)c1c(O)c3c(c(O)c1C2=O)CC(O)(C(=O)CO)CC3OC1CC(N)C(O)C(C)O1 (stereo unspecified) + Cc1cccc(N(C)C(=O)C2C(O)CCN2c2nc(C)cc(C(F)(F)F)c2C#N)c1
classAssignment: 1.0

compound: CC(C)n1c(=O)n(C)c2cnc3cc(F)c(-c4ccc(OCCCN5CCCCC5)nc4)cc3c21 + COC1C(OC(N)=O)C(O)C(Oc2ccc3c(O)c(NC(=O)c4ccc(O)c(CC=C(C)C)c4)c(=O)oc3c2C)OC1(C)C
classAssignment: 0.0

compound: CCCS(=O)(=O)Nc1ccc(F)c(C(=O)c2c[nH]c3ncc(-c4ccc(Cl)cc4)cc23)c1F + Cc1cccc(N(C)C(=O)C2C(O)CCN2c2nc(C)cc(C(F)(F)F)c2C#N)c1
classAssignment: 0.0

compound: CC(C)n1c(=O)n(C)c2cnc3cc(F)c(-c4ccc(OCCCN5CCCCC5)nc4)cc3c21 + Cc1cccc(N(C)C(=O)C2C(O)CCN2c2nc(C)cc(C(F)(F)F)c2C#N)c1
classAssignment: 0.0

compound: CC1COCCN1c1cc(C2(S(C)(=N)=O)CC2)nc(-c2ccnc3[nH]ccc23)n1 (stereo unspecified) + Nc1ccc(C#CCN(C(=O)Cc2ncc(C(F)(F)F)cc2C(F)(F)F)c2ccc(F)cc2)nn1
classAssignment: 0.0

compound: CC1COCCN1c1cc(-c2ccnn2C)c2ccnc(-c3ccn[nH]3)c2n1 (stereo unspecified) + COC1C(OC(N)=O)C(O)C(Oc2ccc3c(O)c(NC(=O)c4ccc(O)c(CC=C(C)C)c4)c(=O)oc3c2C)OC1(C)C
classAssignment: 1.0

compound: CCCS(=O)(=O)Nc1ccc(F)c(C(=O)c2c[nH]c3ncc(-c4ccc(Cl)cc4)cc23)c1F + Nc1ccc(C#CCN(C(=O)Cc2ncc(C(F)(F)F)cc2C(F)(F)F)c2ccc(F)cc2)nn1
classAssignment: 0.0

compound: Cn1ncnc1[C@H]1c2n[nH]c(=O)c3cc(F)cc(c23)N[C@@H]1c1ccc(F)cc1 + COC1C(OC(N)=O)C(O)C(Oc2ccc3c(O)c(NC(=O)c4ccc(O)c(CC=C(C)C)c4)c(=O)oc3c2C)OC1(C)C
classAssignment: 1.0

compound: CNCc1ccc(-c2[nH]c3cc(F)cc4c3c2CCNC4=O)cc1 + Cc1cccc(N(C)C(=O)C2C(O)CCN2c2nc(C)cc(C(F)(F)F)c2C#N)c1
classAssignment: 1.0

compound: CC1COCCN1c1cc(-c2ccnn2C)c2ccnc(-c3ccn[nH]3)c2n1 (stereo unspecified) + Nc1ccc(C#CCN(C(=O)Cc2ncc(C(F)(F)F)cc2C(F)(F)F)c2ccc(F)cc2)nn1
classAssignment: 1.0

compound: Cn1ncnc1[C@H]1c2n[nH]c(=O)c3cc(F)cc(c23)N[C@@H]1c1ccc(F)cc1 + Nc1ccc(C#CCN(C(=O)Cc2ncc(C(F)(F)F)cc2C(F)(F)F)c2ccc(F)cc2)nn1
classAssignment: 1.0

compound: C=CCn1c(=O)c2cnc(Nc3ccc(N4CCN(C)CC4)cc3)nc2n1-c1cccc(C(C)(C)O)n1 + COC1C(OC(N)=O)C(O)C(Oc2ccc3c(O)c(NC(=O)c4ccc(O)c(CC=C(C)C)c4)c(=O)oc3c2C)OC1(C)C
classAssignment: 1.0

compound: COc1ccc([C@@H](O)c2cc(-c3ncnc4cc(N5CCOCC5)ccc34)c(F)cc2Cl)nn1 + Cc1cccc(N(C)C(=O)C2C(O)CCN2c2nc(C)cc(C(F)(F)F)c2C#N)c1
classAssignment: 0.0

compound: C=CCn1c(=O)c2cnc(Nc3ccc(N4CCN(C)CC4)cc3)nc2n1-c1cccc(C(C)(C)O)n1 + Cc1cccc(N(C)C(=O)C2C(O)CCN2c2nc(C)cc(C(F)(F)F)c2C#N)c1
classAssignment: 1.0

compound: CCCS(=O)(=O)Nc1ccc(F)c(C(=O)c2c[nH]c3ncc(-c4ccc(Cl)cc4)cc23)c1F + COC1C(OC(N)=O)C(O)C(Oc2ccc3c(O)c(NC(=O)c4ccc(O)c(CC=C(C)C)c4)c(=O)oc3c2C)OC1(C)C
classAssignment: 0.0

compound: C=CC(=O)N1CCN(c2nc(=O)n(-c3c(C)ccnc3C(C)C)c3nc(-c4c(O)cccc4F)c(F)cc23)C(C)C1 (stereo unspecified) + COC1C(OC(N)=O)C(O)C(Oc2ccc3c(O)c(NC(=O)c4ccc(O)c(CC=C(C)C)c4)c(=O)oc3c2C)OC1(C)C
classAssignment: 0.0
